system: ROCK1; details: concentration: 1 μM, replicates: in singlicate; n = 1;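 further: KINOMEscan kinase panel screen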
Consider the following compounds and their measured %Inh readings.
Form entry: value (%) — number only.

# compound, units-text, %Inh
rows = [
    ("N#Cc1ccc(-c2cc(-c3c[nH]nc3-c3ccccn3)ccn2)cc1 [GW693028]", "%", 28),
    ("Cl.Nc1ncnc2occ(-c3ccc(NC(=O)Nc4cc(C(F)(F)F)ccc4F)cc3)c12 [SB-707548]", "%", 38),
    ("CSc1ccc(-c2cc3ncnc(SCC(=O)O)c3s2)cc1", "%", 0),
    ("Cc1c2ccc(N(C)c3ccnc(Nc4cccc(S(N)(=O)=O)c4)n3)cc2nn1Cc1ccccc1.Cl.Cl [GW787226]", "%", 48),
    ("Cc1ccc(C(=O)NCC(N)=O)cc1-n1c(C)cc(OCc2ccc(F)cc2F)c(Br)c1=O", "%", 0),
    ("O=C(Nc1cccc(-c2nn3ncccc3c2-c2ccnc(Nc3cccc(C(F)(F)F)c3)n2)c1)c1c(F)cccc1F [GSK299495]", "%", 12),
    ("Cc1c(Cn2c(C)nn3c(=O)cc(N4CCOC(C)C4)nc23)cccc1C(F)(F)F (centres unmarked) [GSK2344444]", "%", 0),
]

In the following, a different compound is considered.
Item: CN1c2ccc(CNc3ccc(F)cc3)cc2-c2c(cnn2C)S1(=O)=O | System: ROCK1 | %Inh: 0

###

Consider the following molecules and their measured %Inh readings.
system: EPHA7; settings: concentration: 1 μM, replicates: in singlicate; n = 1
Form entry: value (%) — number only.

Sample records with %Inh:
# molecule, %Inh, %
data = [
    ("Cc1ccc(NC(=O)c2ccnc(N3CCN(C)CC3)c2)cc1-c1ccc(C(=O)NCC2CC2)cc1 [GW775604]", 0),
    ("NS(=O)(=O)CCc1cccc(Nc2nccc(-c3c(-c4cccc(NC(=O)c5c(F)cccc5F)c4)nn4ccccc34)n2)c1 [GSK336735]", 8),
    ("NS(=O)(=O)c1cccc(-c2ccc3nccc(-c4cccc(S(N)(=O)=O)c4)c3c2)c1 [GW867253]", 0),
    ("c1ccc(-c2cc(-c3c[nH]nc3-c3ccccn3)ccn2)cc1 [GW576604]", 0),
    ("O=c1cc(N2CCOCC2)nc2n(Cc3cccc(Cl)c3Cl)c(C3CC3)nn12 [GSK2358994]", 0),
    ("Cc1c(Cn2c(C)nn3c(=O)cc(N4CCOC(C)C4)nc23)cccc1C(F)(F)F (centres unmarked) [GSK2344444]", 3),
]

Lab note: measured %Inh of O=C1NC(=O)C(N2CCc3ccccc32)=C1c1cccc(Cl)c1 [SB-408010] was 0

Lab note: measured %Inh of Fc1ccc(-c2ncn(CCCN3CCOCC3)c2-c2cccnc2)cc1 [SB-211743] was 0

###

Consider the following compounds and their measured %Inh readings.
test system: FRK; conditions: concentration: 1 μM, replicates: in singlicate; n = 1
Form entry: value (%) — number only.

Sample records with %Inh:
# smiles-structure, %Inh (%)
data = [
    ("O=C(NCCNc1ccnc(Nc2ccc(F)cc2)n1)Nc1ccccc1F", 0),
    ("O=C(NCCNc1ccnc(Nc2ccc(F)cc2)n1)c1cc2ccccc2s1", 6),
    ("c1ccc(-c2n[nH]cc2-c2ccnc3ccccc23)nc1", 10),
    ("Cc1cccc(Cn2ccn3c(=O)cc(N4CCOCC4)nc23)c1", 7),
    ("CN(C(=O)c1ccc(-c2cc(-c3c[nH]nc3-c3ccccn3)ccn2)cc1)C1CCOCC1", 6),
    ("CN1c2ccc(NCc3ccc(F)cc3)cc2-c2c(cnn2C)S1(=O)=O", 10),
]

In the following, a different compound is considered.
Lab note: measured %Inh of O=c1cc(N2CCOCC2)nc2n(Cc3cccc4ccccc34)ccn12 was 0
